System: Danio rerio larvae (5 dpf)
Experiment: activity during first hour (no stimuli), difference vs DMSO (percentage points (treated minus DMSO)); higher = more of the behaviour than the DMSO vehicle control
Conditions: 10 µM; exposure time: 3 h pre-incubation + 3 h imaging
Where a name gives a salt, the structure may show the parent alone.
Observable: activity during first hour

- Compound: "O=C1CCc2ccc(OCCCCN3CCN(c4cccc(Cl)c4Cl)CC3)cc2N1 [Aripiprazole]"
  Observable: "activity during first hour"
  Experimental value: 8.28
- Compound: "CCOc1ccccc1OCCN[C@H](C)Cc1ccc(OC)c(S(N)(=O)=O)c1 [Tamsulosin hydrochloride]"
  Observable: "activity during first hour"
  Experimental value: 7.36
- Compound: "COC(=O)C1=C(C)NC(C)=C(C(=O)OC(C)C)C1c1cccc2nonc12 (stereo not given) [Isradipine]"
  Observable: "activity during first hour"
  Experimental value: 0.0385
- Compound: "CC(C)(C)NC(=O)[C@@H]1C[C@@H]2CCCC[C@@H]2CN1C[C@@H](O)[C@H](Cc1ccccc1)NC(=O)[C@H](CC(N)=O)NC(=O)c1ccc2ccccc2n1 [Saquinavir mesylate]"
  Observable: "activity during first hour"
  Experimental value: -9.81
- Compound: "CN(C)C(=N)NC(=N)N [Metformin hydrochloride]"
  Observable: "activity during first hour"
  Experimental value: -6.37

###

System: Danio rerio larvae (5 dpf)
Assay: activity during first hour (no stimuli), difference vs DMSO (percentage points (treated minus DMSO)); higher = more of the behaviour than the DMSO vehicle control
Details: 10 µM; exposure time: 3 h pre-incubation + 3 h imaging
Quick list: activity during first hour per entry.
Observable: activity during first hour

- Compound: "CCC(=O)O[C@]1(C(=O)SCF)[C@H](C)C[C@H]2[C@@H]3C[C@H](F)C4=CC(=O)C=C[C@]4(C)[C@@]3(F)[C@@H](O)C[C@@]21C [Fluticasone propionate]"
  Observable: "activity during first hour"
  Experimental value: 7.17
- Compound: "CC(C)c1nc(N(C)S(C)(=O)=O)nc(-c2ccc(F)cc2)c1/C=C/[C@@H](O)C[C@@H](O)CC(=O)O"
  Observable: "activity during first hour"
  Experimental value: 3.37
- Compound: "CN(CCOc1ccc(NS(C)(=O)=O)cc1)CCc1ccc(NS(C)(=O)=O)cc1 [Dofetilide]"
  Observable: "activity during first hour"
  Experimental value: 1.68

###

The entries below are paired with their reported activity during first hour.
Test system: Danio rerio larvae (5 dpf)
Assay: activity during first hour (no stimuli), difference vs DMSO (percentage points (treated minus DMSO)); higher = more of the behaviour than the DMSO vehicle control
Details: 10 µM; exposure time: 3 h pre-incubation + 3 h imaging
Structures can show the parent of a compound that is named as a salt.
Observable: activity during first hour

- Compound: "CCOC(=O)[C@H](CCc1ccccc1)N[C@H]1CCc2ccccc2N(CC(=O)O)C1=O [Benazepril hydrochloride]"
  Observable: "activity during first hour"
  Experimental value: 1.65
- Compound: "CCc1c2c(nc3ccc(OC(=O)N4CCC(N5CCCCC5)CC4)cc13)-c1cc3c(c(=O)n1C2)COC(=O)[C@]3(O)CC"
  Observable: "activity during first hour"
  Experimental value: -4.43
- Compound: "COCCCOc1cc(C[C@@H](C[C@H](N)[C@@H](O)C[C@H](C(=O)NCC(C)(C)C(N)=O)C(C)C)C(C)C)ccc1OC [Aliskiren hemifumarate]"
  Observable: "activity during first hour"
  Experimental value: -4.92
- Compound: "CCN(Cc1ccncc1)C(=O)C(CO)c1ccccc1 (stereo unspecified) [Tropicamide]"
  Observable: "activity during first hour"
  Experimental value: -5.17
- Compound: "CC(C)(C(=O)c1cccnc1)c1cccnc1 [Metyrapone]"
  Observable: "activity during first hour"
  Experimental value: -5.92
- Compound: "OCCN(CCO)c1nc(N2CCCCC2)c2nc(N(CCO)CCO)nc(N3CCCCC3)c2n1 [Dipyridamole]"
  Observable: "activity during first hour"
  Experimental value: -0.789
- Compound: "Clc1ccc2nsnc2c1NC1=NCCN1 [Tizanidine hydrochloride]"
  Observable: "activity during first hour"
  Experimental value: -14.2
- Compound: "CN(CCOc1ccc(CC2SC(=O)NC2=O)cc1)c1ccccn1 (stereo unspecified) [Rosiglitazone]"
  Observable: "activity during first hour"
  Experimental value: 2.2
- Compound: "C[C@@H]1C[C@H]2[C@@H]3CCC4=CC(=O)C=C[C@]4(C)[C@@]3(F)[C@@H](O)C[C@]2(C)[C@@]1(O)C(=O)CO [Dexamethasone]"
  Observable: "activity during first hour"
  Experimental value: 15
- Compound: "Nc1ncn([C@H]2C[C@H](O)[C@@H](CO)O2)c(=O)n1 [Decitabine]"
  Observable: "activity during first hour"
  Experimental value: 0.325
- Compound: "OCc1cc(C(O)CNCCCCCCOCCCCc2ccccc2)ccc1O (stereo unspecified) [Salmeterol xinafoate]"
  Observable: "activity during first hour"
  Experimental value: 14.1
- Compound: "CN1CCN2c3ncccc3Cc3ccccc3C2C1 (stereo unspecified) [Mirtazapine]"
  Observable: "activity during first hour"
  Experimental value: 11.7
- Compound: "CC#C[C@]1(O)CC[C@H]2[C@@H]3CCC4=CC(=O)CCC4=C3[C@@H](c3ccc(N(C)C)cc3)C[C@@]21C [Mifepristone]"
  Observable: "activity during first hour"
  Experimental value: -3.58
- Compound: "O=C(c1ccc(OCCN2CCCCC2)cc1)c1c(-c2ccc(O)cc2)sc2cc(O)ccc12 [Raloxifene hydrochloride]"
  Observable: "activity during first hour"
  Experimental value: -5.98
- Compound: "Cc1ccc(N(CC2=NCCN2)c2cccc(O)c2)cc1 [Phentolamine Mesylate]"
  Observable: "activity during first hour"
  Experimental value: 9.58
- Compound: "C=CC(=O)N1CCC[C@@H](n2nc(-c3ccc(Oc4ccccc4)cc3)c3c(N)ncnc32)C1 [Ibrutinib]"
  Observable: "activity during first hour"
  Experimental value: -6.62

###

System: Danio rerio larvae (5 dpf)
Assay: activity during period 15 (no stimuli), difference vs DMSO (percentage points (treated minus DMSO)); higher = more of the behaviour than the DMSO vehicle control
Conditions: 10 µM; exposure time: 3 h pre-incubation + 3 h imaging
Counter-ions that a name gives are not always drawn.
Entries annotated with measured activity during period 15

- Compound: "CCOC(=O)[C@H](CCc1ccccc1)N[C@@H](C)C(=O)N1[C@H](C(=O)O)C[C@@H]2CCC[C@@H]21"
  activity during period 15: -2.34
- Compound: "COc1c(C)c2c(c(O)c1C/C=C(\\C)CCC(=O)O)C(=O)OC2"
  activity during period 15: 9.46
- Compound: "CN[C@H]1CC[C@@H](c2ccc(Cl)c(Cl)c2)c2ccccc21 [Sertraline hydrochloride]"
  activity during period 15: -26
- Compound: "CC(C)Nc1cccnc1N1CCN(C(=O)c2cc3cc(NS(C)(=O)=O)ccc3[nH]2)CC1 [Delavirdine mesylate]"
  activity during period 15: -4.9

###

Below: a set of entries, each annotated with reported optomotor response to red moving lines.
Tested on: Danio rerio larvae (5 dpf)
Assay: optomotor response to red moving lines, difference vs DMSO (percentage points (treated minus DMSO)); higher = more of the behaviour than the DMSO vehicle control
Details: 10 µM; exposure time: 3 h pre-incubation + 3 h imaging
Counter-ions that a name gives are not always drawn.
Observable: optomotor response to red moving lines

- Molecule: "COc1cc2nc(N3CCN(C(=O)c4ccco4)CC3)nc(N)c2cc1OC [Prazosin hydrochloride]"
  Experimental target: "Danio rerio larvae (5 dpf)"
  Observable: "optomotor response to red moving lines"
  Experimental value: -6.9
- Molecule: "Nc1ncn([C@H]2C[C@H](O)[C@@H](CO)O2)c(=O)n1"
  Experimental target: "Danio rerio larvae (5 dpf)"
  Observable: "optomotor response to red moving lines"
  Experimental value: -3.68
- Molecule: "CCc1ccc(CCOc2ccc(CC3SC(=O)NC3=O)cc2)nc1 (centres undefined) [Pioglitazone hydrochloride]"
  Experimental target: "Danio rerio larvae (5 dpf)"
  Observable: "optomotor response to red moving lines"
  Experimental value: -7.97
- Molecule: "Nc1nc2[nH]cc(CCc3ccc(C(=O)N[C@@H](CCC(=O)O)C(=O)O)cc3)c2c(=O)[nH]1"
  Experimental target: "Danio rerio larvae (5 dpf)"
  Observable: "optomotor response to red moving lines"
  Experimental value: -7.22

###

Tested on: Danio rerio larvae (5 dpf)
Assay: optomotor response to blue moving lines, difference vs DMSO (percentage points (treated minus DMSO)); higher = more of the behaviour than the DMSO vehicle control
Conditions: 10 µM; exposure time: 3 h pre-incubation + 3 h imaging
Note to self: values exactly at -3 are 1. So optomotor response to blue moving lines at or above -3 is 1, below is -1.

- Compound: "CC(=O)O[C@H]1C(=O)[C@@]2(C)[C@H]([C@H](OC(=O)c3ccccc3)[C@]3(O)C[C@H](OC(=O)[C@H](O)[C@@H](NC(=O)c4ccccc4)c4ccccc4)C(C)=C1C3(C)C)[C@]1(OC(C)=O)CO[C@@H]1C[C@@H]2O [Taxol]"
  Category: 1
- Compound: "CC[C@H](C)C(=O)O[C@H]1C[C@@H](C)C=C2C=C[C@H](C)[C@H](CC[C@@H]3C[C@@H](O)CC(=O)O3)[C@H]21 [Lovastatin]"
  Category: 1
- Compound: "CNC(=O)c1cc(Oc2ccc(NC(=O)Nc3ccc(Cl)c(C(F)(F)F)c3)cc2)ccn1 [Sorafenib]"
  Category: -1
- Compound: "CS(=O)(=O)CCNCc1ccc(-c2ccc3ncnc(Nc4ccc(OCc5cccc(F)c5)c(Cl)c4)c3c2)o1 [Lapatinib]"
  Category: 1
- Compound: "COc1ccccc1Oc1c(NS(=O)(=O)c2ccc(C(C)(C)C)cc2)nc(-c2ncccn2)nc1OCCO [Bosentan]"
  Category: 1
- Compound: "CCOc1nc2cccc(C(=O)O)c2n1Cc1ccc(-c2ccccc2-c2nnn[nH]2)cc1 [Candesartan]"
  Category: 1
